Entries annotated with measured folding stability dG
B1: 1ZHC (parent)
chain: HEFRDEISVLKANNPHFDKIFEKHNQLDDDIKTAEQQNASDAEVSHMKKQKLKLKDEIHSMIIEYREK

# Variants of: B1
# METHOD: folding stability dG (cDNA display proteolysis); higher = more stable
# MEASUREMENT PARAMETERS: PBS, room temperature

[
  {
    "MUTATION NOTATION": "D41R",
    "folding stability dG, kcal/mol": 0.76
  },
  {
    "MUTATION NOTATION": "E64N",
    "folding stability dG, kcal/mol": 0.583
  },
  {
    "MUTATION NOTATION": "I63K",
    "folding stability dG, kcal/mol": 0.899
  },
  {
    "MUTATION NOTATION": "D28R",
    "folding stability dG, kcal/mol": 0.988
  },
  {
    "MUTATION NOTATION": "K53E",
    "folding stability dG, kcal/mol": 0.543
  },
  {
    "MUTATION NOTATION": "R66M",
    "folding stability dG, kcal/mol": 0.762
  },
  {
    "MUTATION NOTATION": "V44M",
    "folding stability dG, kcal/mol": 0.497
  },
  {
    "MUTATION NOTATION": "K55N",
    "folding stability dG, kcal/mol": 0.726
  },
  {
    "MUTATION NOTATION": "F3R",
    "folding stability dG, kcal/mol": -0.674
  },
  {
    "MUTATION NOTATION": "K19E",
    "folding stability dG, kcal/mol": 1.1
  },
  {
    "MUTATION NOTATION": "F3I",
    "folding stability dG, kcal/mol": 0.418
  },
  {
    "MUTATION NOTATION": "F17P",
    "folding stability dG, kcal/mol": -0.525
  },
  {
    "MUTATION NOTATION": "Q37R",
    "folding stability dG, kcal/mol": 1.51
  },
  {
    "MUTATION NOTATION": "A42S",
    "folding stability dG, kcal/mol": 0.359
  },
  {
    "MUTATION NOTATION": "K49T",
    "folding stability dG, kcal/mol": 0.971
  },
  {
    "MUTATION NOTATION": "S45I",
    "folding stability dG, kcal/mol": 0.788
  },
  {
    "MUTATION NOTATION": "M61C",
    "folding stability dG, kcal/mol": -0.322
  },
  {
    "MUTATION NOTATION": "H59M",
    "folding stability dG, kcal/mol": 1.92
  },
  {
    "MUTATION NOTATION": "E43N",
    "folding stability dG, kcal/mol": 0.299
  },
  {
    "MUTATION NOTATION": "S40A",
    "folding stability dG, kcal/mol": 0.255
  },
  {
    "MUTATION NOTATION": "E67R",
    "folding stability dG, kcal/mol": 1.3
  },
  {
    "MUTATION NOTATION": "E57K",
    "folding stability dG, kcal/mol": 0.212
  }
]
